Test: Antioxidant activity, DPPH assay
Conditions: 200 μM compound
reported metric: % inhibition at 200 μM (%)
# number only, unit % dropped from output

Consider the following illustrative entries.
O=c1cc(CO)oc(C(Nc2ccccn2)c2ccccc2F)c1O (stereo not shown) [Compound 4b]	14.09
O=c1cc(CO)oc(C(Nc2ccccn2)c2ccccc2Br)c1O (stereo not shown) [Compound 4f]	13.03
O=c1cc(CO)oc(C(Nc2ccccn2)c2cccc(F)c2)c1O (stereo not shown) [Compound 4c]	18.65
COc1ccc(C(Nc2ccccn2)c2oc(CO)cc(=O)c2O)cc1[N+](=O)[O-] (stereo not shown) [Compound 4i]	64.24
O=c1cc(CO)oc(C(Nc2ccccn2)c2cccc(Br)c2)c1O (stereo not shown) [Compound 4g]	18.44
Cc1cccc(C(Nc2ccccn2)c2oc(CO)cc(=O)c2O)c1 (stereo not shown) [Compound 4j]	17.90

% inhibition at 200 μM recorded for this compound, Cc1ccc(C(Nc2ccccn2)c2oc(CO)cc(=O)c2O)cc1 (stereo not shown) [Compound 4k] , is 26.96

----------
Molecular target: mushroom tyrosinase
Experiment: Tyrosinase inhibitory assay
Type: biochemical
Settings: read-out: IC50 (μM) ± RSD, L-DOPA substrate, means ± RSD
reported metric: IC50 (µM)
# number only, unit µM dropped from output

Consider the following illustrative entries.
O=c1cc(CO)oc(C(Nc2ccccn2)c2cccc(Cl)c2)c1O (stereo not drawn) [Compound 4e]	44.7
COc1cccc(C(Nc2ccccn2)c2oc(CO)cc(=O)c2O)c1O (stereo not drawn) [Compound 4l]	37.1

Consider the additional compound presented here.
IC50 recorded for this compound, O=c1cc(CO)oc(C(Nc2ccccn2)c2cccc([N+](=O)[O-])c2)c1O (stereo not drawn) [Compound 4h] , is 20.4

----------
System: mushroom tyrosinase
Test: Tyrosinase inhibitory assay
Assay type: biochemical
Conditions: 50 μM compound, L-DOPA substrate
reported metric: % inhibition at 50 μM (%)
# number only, unit % dropped from output

Consider the following illustrative entries.
O=c1cc(CO)oc(C(Nc2ccccn2)c2ccccc2)c1O (stereo not drawn) [Compound 4a]	29.14
O=c1cc(CO)oc(C(Nc2ccccn2)c2ccccc2Cl)c1O (stereo not drawn) [Compound 4d]	60.35

Form field, % inhibition at 50 μM with mushroom tyrosinase, item O=c1cc(CO)oc(C(Nc2ccccn2)c2ccccc2Br)c1O (stereo not drawn) [Compound 4f] : 60.85

----------
Assay: Antioxidant activity, DPPH assay
Conditions: 200 μM compound
reported metric: % inhibition at 200 μM

Consider the following illustrative entries.
O=c1cc(CO)oc(C(Nc2ccccn2)c2ccc(COc3ccccc3)cc2)c1O (centres unmarked) [Compound 4m]	23.30 ± 5.17%
O=c1cc(CO)oc(C(Nc2ccccn2)c2ccccc2)c1O (centres unmarked) [Compound 4a]	20.86 ± 4.41%
O=c1cc(CO)oc(C(Nc2ccccn2)c2ccccc2Cl)c1O (centres unmarked) [Compound 4d]	19.49 ± 3.98%
O=c1cc(CO)oc(C(Nc2ccccn2)c2cccc(Cl)c2)c1O (centres unmarked) [Compound 4e]	17.21 ± 4.01%

% inhibition at 200 μM recorded for this molecule, COc1cccc(C(Nc2ccccn2)c2oc(CO)cc(=O)c2O)c1O (centres unmarked) [Compound 4l] , is 30.61 ± 5.76%

----------
Molecular target: mushroom tyrosinase
Assay: Tyrosinase inhibitory assay
Type: biochemical
Settings: read-out: IC50 (μM) ± RSD, L-DOPA substrate, means ± RSD
reported metric: IC50 (µM)
# number only, unit µM dropped from output

Consider the following illustrative entries.
O=c1cc(CO)oc(C(Nc2ccccn2)c2ccccc2F)c1O (stereo not drawn)	28.2
O=c1cc(CO)oc(C(Nc2ccccn2)c2ccccc2Br)c1O (stereo not drawn)	23.4
COc1ccc(C(Nc2ccccn2)c2oc(CO)cc(=O)c2O)cc1[N+](=O)[O-] (stereo not drawn)	30.9

Consider the additional compound presented here.
IC50 recorded for this compound, O=c1cc(CO)oc(C(Nc2ccccn2)c2ccccc2Cl)c1O (stereo not drawn) , is 22.4
